- System: biotinyl-Trp-oxazolone
- test_description: self-aminoacylation, catalytic enhancement (BWO) (fold over background); higher = more active; k-Seq, kA / k0A0; sequences stand for … in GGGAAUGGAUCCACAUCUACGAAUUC…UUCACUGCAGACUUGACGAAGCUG
Variants at the floor of the assay were thinned out.

biosequence: AUUCACCUAGGACAUUGGGUG [Fam2.2 aminoacylation ribozyme variant]
subject_of_test: biotinyl-Trp-oxazolone
self-aminoacylation: 2.79

biosequence: AUUCACCUAGGUCAGCGAGUG [Fam2.2 aminoacylation ribozyme variant]
subject_of_test: biotinyl-Trp-oxazolone
self-aminoacylation: 5.84

biosequence: AUUUACCAAGGUCAUCGGGUG [Fam2.2 aminoacylation ribozyme variant]
subject_of_test: biotinyl-Trp-oxazolone
self-aminoacylation: 7.11

biosequence: AAGUUUGCUAUUAGUCGUAAG [Fam3.1 aminoacylation ribozyme variant]
subject_of_test: biotinyl-Trp-oxazolone
self-aminoacylation: 1.13

biosequence: AAGUUUGCUAAAAAUCGCAAG [Fam3.1 aminoacylation ribozyme variant]
subject_of_test: biotinyl-Trp-oxazolone
self-aminoacylation: 0.986

biosequence: CCGCAUUUCAAGCAAUCGGUC [Fam1B.1 aminoacylation ribozyme variant]
subject_of_test: biotinyl-Trp-oxazolone
self-aminoacylation: 14.3

biosequence: CUACUGCAAACAAUCGGGCUG [Fam1A.1 aminoacylation ribozyme variant]
subject_of_test: biotinyl-Trp-oxazolone
self-aminoacylation: 0.887

biosequence: CGUCACCUAGGUCAUCGGGUG [Fam2.2 aminoacylation ribozyme variant]
subject_of_test: biotinyl-Trp-oxazolone
self-aminoacylation: 6

biosequence: AUUACCCUGAUCAACGAGUGA [Fam2.1 aminoacylation ribozyme variant]
subject_of_test: biotinyl-Trp-oxazolone
self-aminoacylation: 18.5

biosequence: AUGACCCCGGUCAUCGAGUGA [Fam2.1 aminoacylation ribozyme variant]
subject_of_test: biotinyl-Trp-oxazolone
self-aminoacylation: 6.78

biosequence: AUUCACCUAGUUCAUCAGGUG [Fam2.2 aminoacylation ribozyme variant]
subject_of_test: biotinyl-Trp-oxazolone
self-aminoacylation: 0.893

biosequence: AUUCACCUACGUCAUCGCGUG [Fam2.2 aminoacylation ribozyme variant]
subject_of_test: biotinyl-Trp-oxazolone
self-aminoacylation: 9.63

biosequence: AUUCACCUUGGUCAUCGGGAG [Fam2.2 aminoacylation ribozyme variant]
subject_of_test: biotinyl-Trp-oxazolone
self-aminoacylation: 1.27

biosequence: AUGCACCUAGGUCAUCGCGUG [Fam2.2 aminoacylation ribozyme variant]
subject_of_test: biotinyl-Trp-oxazolone
self-aminoacylation: 11

* * *

- System: biotinyl-Ile-oxazolone
- test_description: self-aminoacylation, catalytic enhancement (BIO) (fold over background); higher = more active; k-Seq, kA / k0A0; sequences stand for … in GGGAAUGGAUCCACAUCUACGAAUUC…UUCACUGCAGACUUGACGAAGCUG
This sample holds only a part of the variants without activity.
measure_name: self-aminoacylation

biosequence: CCACACUUCAAGUAUUCGGUC [Fam1B.1 aminoacylation ribozyme variant]
measure_name: self-aminoacylation
recorded_number: 1.63

biosequence: AUUCACCUAGGUGGUCGGGUG [Fam2.2 aminoacylation ribozyme variant]
measure_name: self-aminoacylation
recorded_number: 2.49

biosequence: AUUCGCAUAGGUCAUCGGGUG [Fam2.2 aminoacylation ribozyme variant]
measure_name: self-aminoacylation
recorded_number: 5.95

* * *

The entries below are paired with their reported self-aminoacylation.
- Tested on: biotinyl-Phe-oxazolone
- test_description: self-aminoacylation, catalytic enhancement (BFO) (fold over background); higher = more active; k-Seq, kA / k0A0; sequences stand for … in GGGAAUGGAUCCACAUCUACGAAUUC…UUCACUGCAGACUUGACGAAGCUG
Variants at the floor of the assay were thinned out.

biosequence: AAGUUUGCUAAUAGUCAGAAG [Fam3.1 aminoacylation ribozyme variant]
subject_of_test: biotinyl-Phe-oxazolone
self-aminoacylation: 2.61
--
biosequence: AAGUUUGCUAAUGGUCGCAAC [Fam3.1 aminoacylation ribozyme variant]
subject_of_test: biotinyl-Phe-oxazolone
self-aminoacylation: 6.25
--
biosequence: CUACUUCAACCAAUCGGGCUG [Fam1A.1 aminoacylation ribozyme variant]
subject_of_test: biotinyl-Phe-oxazolone
self-aminoacylation: 7.63
--
biosequence: AUUACCCUGGUCAUCGAGCGA [Fam2.1 aminoacylation ribozyme variant]
subject_of_test: biotinyl-Phe-oxazolone
self-aminoacylation: 3.41
--
biosequence: AUUACCCUGAUCUUCGAGUGA [Fam2.1 aminoacylation ribozyme variant]
subject_of_test: biotinyl-Phe-oxazolone
self-aminoacylation: 15.7
--
biosequence: GUUAACCUAGGUCAUCGGGUG [Fam2.2 aminoacylation ribozyme variant]
subject_of_test: biotinyl-Phe-oxazolone
self-aminoacylation: 77.3
